The measurements presented in this section are drawn from patent US20190031754A1.

target_system: hFc-hROR2-T245 (recombinant human ROR2 extracellular domain fused to human Fc) (human) (UniProt Q01974)
Sequence (Q01974 55-394 limits assumed, form in doubt): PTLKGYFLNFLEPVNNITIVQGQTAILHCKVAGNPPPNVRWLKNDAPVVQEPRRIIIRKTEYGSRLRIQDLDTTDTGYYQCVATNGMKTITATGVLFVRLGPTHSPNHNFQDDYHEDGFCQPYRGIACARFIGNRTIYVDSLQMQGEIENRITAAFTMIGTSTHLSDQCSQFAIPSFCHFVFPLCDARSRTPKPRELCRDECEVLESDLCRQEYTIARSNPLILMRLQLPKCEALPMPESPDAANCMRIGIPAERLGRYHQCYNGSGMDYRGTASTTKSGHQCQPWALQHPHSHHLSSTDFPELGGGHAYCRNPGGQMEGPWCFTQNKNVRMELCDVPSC
assay_procedure: SPR (Biacore X100), hFc-hROR2 captured by anti-human Fc on CM5, Fab as analyte, 1:1 Langmuir model
Below is a list of entries, each paired with its recorded kon value.
Output spec: scalar in M⁻¹ s⁻¹, unitless text.

>  <binder>
chimeric rabbit/human Fab XBR2-TOP9 (Fab, V domains shown) VH: QSVEESRGRLVTPGTPLTLICTVSGIDLSSYNIQWVRQAPGKGLEYIGYINTDGSAYYASWAKGRFTISKTSTTVDLKITSPTTEDTATYFCARGGYASGFNLWGPGTLVTISS VL: DVVMTQTPSSTSAAVGGTVTIKCQASQNIGPWLSWYQQKPGQPPKQLIYAASTLASGVPSRFKGSGSGTDYTLTISGVQREDAATYYCLGWHSWSDDGWAFGAGTNVEIK

>  <kon [M⁻¹ s⁻¹]>
328000

$$$$
>  <binder>
chimeric rabbit/human Fab ERR2-TOP35 (Fab, V domains shown) VH: QSVKESEGGLFKPMDTLTLTCTVSGFSLNTYGVSWVRQAPGNGLEWIGAVGSSGATNYASWAKSRSTITRNTNENTVTLKMTSLTAADTATYFCARDGYYSSGWGPYFSIWGPGTLVTVSS VL: SFVLTQPASVQVNLGQTVSLTCTAETLRSSYASWYQQKPGQAPVLLIYRDTSRPSGVPDRFSGSSSGNTATLTISGAQAGDEADYYCATSDGSGSRYYVFGGGTQLTVTG

>  <kon [M⁻¹ s⁻¹]>
197000

$$$$

Kindly consider the entry below.
### Prompt Give the reported kon for this binder. chimeric rabbit/human Fab XBR2-416 (Fab, V domains shown) VH: QEQLEESGGRLVTPGTPLTLTCTVSGFSLSSYWMSWVRQAPGKGLEWIGTITPGGNTDYATWAKARFTVSKTSTTVDLKITSPTTEDTATYFCARGIGGAADLWGPGTLVTISS VL: AQVLTQTPSSTSAAVGGTVTIKCQASQSISSSDLSWYQQKPGQPPKLLIYATSYLASGVPSRFKGSGSGTEYTLTISGVQREDAATYYCLGGYPNTSYRSAFGGGTKVEIK
### Response 49800
